# test: S. pombe growth modifiers, basal conditions – strain 972, OD600, 24 h, no modulator, primary screen (AID 1090);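 further: basal condition with compound alone and no growth modifier present; test concentration not given here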
# settings: S. pombe 972 growth, called active from +8 up or from −8 down
Calls of active or inactive are those of the source.
Valid outcomes are listed here; reply with one: active, inactive

C=CCC(OC(C)=O)[C@@H]1[C@@H](N(Cc2cc3ccccc3o2)C(=O)c2cccc3ccccc23)c2cc(OCCCO)ccc2N1C(=O)c1ccc2ccccc2n1 (some centres undefined)    inactive
COc1cc(CO)cc(I)c1O[C@H]1C=C(C(=O)NCCO)C[C@@H](NC2CCCCCC2)[C@@H]1O    active
COCCOC(=O)N1C(=O)[C@@]2(c3cc(C#CCCO)ccc31)[C@H](c1ccccc1OCCO)N1[C@H](c3ccccc3)[C@H](c3ccccc3)OC(=O)[C@H]1[C@@H]2C(N)=O    inactive
CCCc1cc2c(n1CCc1ccc(Cl)cc1)C(C)C1CN(C(=O)c3ccccc3)C(C)(C(=O)OC)C21 (centres undefined)    inactive
C=CCC(OC(C)=O)[C@@H]1[C@@H](N(Cc2cccc3ccccc23)C(=O)Cc2ccc(OC)cc2)c2cc(OCCCO)ccc2N1C(=O)c1ccc2ccccc2c1 (some centres undefined)    inactive
CCOC(=O)C[C@H]1[C@H](OC(=O)Cc2ccc3c(c2)OCO3)[C@@H](NC(=O)c2ccc3ccccc3n2)c2cc(OCCCO)ccc2N1C(=O)Cc1ccc(OC)cc1    inactive
C=CCOC(=O)[C@H]1[C@@H]2C(=O)O[C@@H](c3ccccc3)[C@@H](c3ccccc3)N2[C@@H](c2ccc(OCCOC(=O)[C@@H]3C[C@@H]4C(=O)N[C@@H](CCCC[N+](C)(C)C)C(=O)N4[C@@H]3c3ccc(O)cc3)cc2)[C@]12C(=O)Nc1ccc(I)cc12    inactive
CN(C)CCCC[C@@H]1NC(=O)[C@H]2C[C@@H](C(=O)O)[C@@H](c3ccc(O)cc3)N2C1=O    inactive

[Q] Assay result, entry CC1CC/C=C\[C@H]2OC34C=CCN(c5ccc6ccccc6c5)C(=O)[C@H]3N(C(C)CO)C(=O)[C@@H]4C2C(=O)O1 (some centres undefined) — outcome?
[A] inactive

* * *

Catalogue of molecules with associated composite z-score
# study.target: Dickkopf-related protein 1 (Homo sapiens) (UniProt O94907)
# Sequence (O94907 whole entry, looked up): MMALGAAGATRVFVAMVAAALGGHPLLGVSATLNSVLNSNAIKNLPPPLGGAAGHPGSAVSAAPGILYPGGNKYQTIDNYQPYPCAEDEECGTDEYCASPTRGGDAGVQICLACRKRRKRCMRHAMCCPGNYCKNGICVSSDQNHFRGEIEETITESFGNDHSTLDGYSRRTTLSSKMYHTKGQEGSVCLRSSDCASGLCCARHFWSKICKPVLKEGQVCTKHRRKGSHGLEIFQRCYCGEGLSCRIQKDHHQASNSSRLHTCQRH
# test: small molecules binding DKK1 protein – biochemical, small-molecule microarray, 635 nm fluorescence scan, primary screen (AID 1106);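 further: score merges emission near 667 nm with signal to noise over three replicate slides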
# settings: higher = more signal

CC(C)(C)N1CC=CC23O[C@@H]4/C=C\CCCOC(=O)C4[C@H]2C(=O)N(CCCO)[C@@H]3C1=O (some centres undefined)    -1.07
C=CCOC(=O)[C@@H]1[C@H]2C(=O)O[C@H](c3ccccc3)[C@H](c3ccccc3)N2[C@H](c2ccc(OCCOC(=O)[C@H]3C[C@H]4C(=O)N5CCC[C@H]5C(=O)N4[C@H]3c3cccc(OCCO)c3)cc2)[C@@]12C(=O)Nc1ccc(I)cc12    1.06
CCCC[C@H]1OB(O)C[C@H]2C1=C(COc1ccccc1)C[C@H]1C(=O)C=CC(=O)[C@H]12    0.966
COC(=O)c1cccc([C@H]2OC(=CC(=O)OC(C)C)C[C@@H](c3cccc(C(=O)OC)c3)O2)c1    0.34
COC(=O)[C@@]1(Cc2ccc(OC)cc2)[C@H]2c3cc(C(=O)N(C)C)[nH]c3C[C@H]2CN1C(=O)c1ccccc1    -0.465
CCCN1C(=O)[C@]2(CCC(=O)OC(C)(C)C)N=C(c3ccc(OCCCO)cc3)O[C@@H]2c2ccccc21    -0.175
O=C1OCCC=C[C@H]2OC34C=CCN(c5ccc6ccccc6c5)C(=O)[C@H]3N(CCO)C(=O)[C@@H]4C12 (some centres undefined)    -0.951
O=C1C[C@@](C(=O)O)(c2ccc([N+](=O)[O-])cc2)[C@@H](c2ccc(CO)cc2)N1C1CCCCC1    0.649
C=CCC(OC(C)=O)[C@@H]1[C@@H](N(Cc2cccc3ccccc23)C(=O)Cc2ccc(OC)cc2)c2cc(OCCCO)ccc2N1C(=O)Cc1ccc2ccccc2c1 (some centres undefined)    0.073
C=C(COC)/C(=C/C[C@H](OC(C)=O)c1ccccc1OCCO)c1cc(C(=O)OC)ccc1OC    0.189

As a next step, examine the molecule that follows.
[Q] Item `COc1ccc([Si](C)(C)[C@@H]2[C@@H](CC(=O)N3Cc4ccccc4C[C@H]3CO)O[C@]3(C(=O)N(Cc4ccc(N5CCOC5=O)cc4)c4ccccc43)[C@H]2C)cc1` has what recorded composite z-score?
[A] 0.945

* * *

Catalogue of compounds with associated composite z-score
# Tested on: Wnt5a (protein binding on small-molecule microarray)
# test: small molecules binding Wnt5a protein – biophysical, small-molecule microarray, 635/667 nm fluorescence, primary screen (AID 1142);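 further: fluorescence read at 667 nm with signal to noise per printed feature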
# settings: 635 nm fluorescence, higher = more signal
Please state the value as a number alone, without comment.

The following compounds have reported results that may help.
Cc1ccc(N2C(=O)c3ccccc3[C@](C)(C(=O)NCCCN(C)C)[C@@H]2c2ccc(CO)cc2)nc1    -0.169
C=C(CCCC)/C(=C/C[C@H](OC(=O)c1ccncc1)c1ccc(OCCO)cc1)c1cnc2ccccc2c1    0.766
CN(C)CCCC[C@@H]1NC(=O)[C@H]2C[C@@H](C(=O)O)[C@@H](c3ccc(O)cc3)N2C1=O    0.938

[Q] Item `COC(=O)C(CC#Cc1ccc2c(c1)[C@]1(C(=O)N2)[C@H](C(=O)NC[C@H](O)c2ccccc2)[C@H]2C(=O)O[C@H](c3ccccc3)[C@H](c3ccccc3)N2[C@@H]1c1ccccc1OCCO)C(=O)OC` has what recorded composite z-score?
[A] 0.649

* * *

# study.target: Concanavalin-A (Canavalia ensiformis) (UniProt P02866)
# Sequence (P02866 whole entry, looked up): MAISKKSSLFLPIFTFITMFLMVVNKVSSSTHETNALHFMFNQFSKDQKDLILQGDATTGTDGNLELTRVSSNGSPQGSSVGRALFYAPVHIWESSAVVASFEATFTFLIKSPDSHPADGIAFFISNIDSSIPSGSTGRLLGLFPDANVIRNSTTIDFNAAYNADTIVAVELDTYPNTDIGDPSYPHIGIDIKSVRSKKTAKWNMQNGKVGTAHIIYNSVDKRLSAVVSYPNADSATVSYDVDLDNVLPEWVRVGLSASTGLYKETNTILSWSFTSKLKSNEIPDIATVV
# test: compounds binding concanavalin A lectin – biochemical, small-molecule microarray, Alexa647 label, 635 nm, artefact control for SMM control protein annotation, primary screen (AID 1127);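 further: z combines 667 nm emission intensity with signal-to-noise across three replicate slides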
# settings: ConA-A647 binding fluorescence, higher = more signal
measured.metric: composite z-score

The following compounds have reported results that may help.
C=C(CCCC)/C(=C/C[C@H](OC(=O)c1ccncc1)c1cccc(OCCO)c1)c1cnc2ccccc2c1    0.831
O=C(NCc1ccc(F)cc1)[C@H]1C[C@H]2C(=O)N3CCC[C@H]3C(=O)N2[C@H]1c1ccc(O)cc1    0.72
CC(C)NC(=O)[C@@]1(C)c2ccccc2C(=O)N(Cc2ccccc2)[C@H]1c1ccc(CO)cc1    0.537
COC(=O)[C@@]1(Cc2ccc(F)cc2)[C@H]2c3cc(C(=O)N4CCCC4)n(CCc4ccccn4)c3C[C@H]2CN1C(=O)c1ccccc1    0.222
COC(=O)C1(Cc2ccccc2)C=C2C(=C(C)C(=O)C2C)CN1 (stereo unspecified)    -0.634

As a next step, examine the compound that follows.
[Q] Item `O=C1O[C@@H](c2ccccc2)[C@@H](c2ccccc2)N2[C@@H](c3ccc(OCCO)cc3)[C@]3(C(=O)Nc4ccc(C#CC5(O)CCCCCC5)cc43)[C@@H](C(=O)O)[C@H]12` has what recorded composite z-score?
[A] 0.994

* * *

# System: Chordin-like protein 2 (CHRDL2)
# test: compounds binding chordin-like 2 – biochemical, small-molecule microarray, 635 nm fluorescence, primary screen (AID 1126);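 further: printed compound slides probed with Chrdl2 protein at 4 µg/mL for 1 h at 4 C; score merges 667 nm emission intensity with signal to noise over three replicate slides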
# settings: fluorescence 635 nm, higher = more signal
Outcome: 1 (yes) for composite z-score of at least -0.8; 0 (no) for anything lower.

Reference set, count: 5
CC(C)(C)OC(=O)CC[C@@]1(C(=O)NCCN2CCOCC2)N=C(c2ccc(OCCCO)cc2)O[C@@H]1c1ccccc1CN=[N+]=[N-]    1 (yes)
COCCCNC(=O)[C@@]1(Sc2ccc(C)cc2)CC(=O)N(Cc2ccccc2C(F)(F)F)[C@@H]1c1ccc(CO)cc1I    0 (no)
C=CC[C@@]1(C(=O)OC)N=C(c2ccc(OCCCO)cc2)O[C@@H]1c1ccccc1N=[N+]=[N-]    1 (yes)
COC(=O)[C@@]1(Cc2ccccc2)[C@H]2c3cc(C(=O)N4CCCC4)n(Cc4ccc(OC)c(OC)c4)c3C[C@H]2CN1C(=O)c1ccccc1    0 (no)
C=CCOC(=O)[C@H]1[C@@H]2C(=O)O[C@@H](c3ccccc3)[C@@H](c3ccccc3)N2[C@@H](c2ccc(OCCOC(=O)[C@@H]3C[C@@H]4C(=O)N[C@@H](CCCCNC(C)=O)C(=O)N4[C@@H]3c3cccc(OCCO)c3)cc2)[C@]12C(=O)Nc1ccccc12    1 (yes)

[Q] Reported composite z-score at or above -0.8? `C=C(CCCC)C(=O)CC[C@H](OC(=O)c1ccccc1-c1ccccc1C(=O)O)c1ccc(OCCO)cc1`
[A] 1 (yes)

[Q] Please give the result for `CC(C)NC(=O)[C@@]1(C)c2ccccc2C(=O)N(Cc2ccccc2)[C@H]1c1ccc(CO)cc1` too.
[A] 0 (no)

* * *

# test: compounds binding Alexa647 anti-His antibody – biochemical, small-molecule microarray, 635 nm fluorescence, artefact control for SMM control protein annotation, primary screen (AID 1128);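 further: score merges feature fluorescence with signal-to-noise for each printed compound spot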
# settings: higher = more signal
measured.metric: composite z-score
Please state the value as a number alone, without comment.

The following compounds have reported results that may help.
[N-]=[N+]=Nc1ccccc1C[C@]1(C(=O)N2CCOCC2)N=C(c2ccc(OCCCO)cc2)O[C@H]1c1ccccc1N=[N+]=[N-]    2.37
CCCCN1CC=CC23O[C@@H]4/C=C\CCCOC(=O)C4[C@H]2C(=O)N(C(CO)C(C)C)[C@@H]3C1=O (stereo not given in full)    0.0807

[Q] Item `COc1ccc([Si](C)(C)[C@H]2[C@H](CC(=O)N3Cc4ccccc4C[C@H]3CO)O[C@@]3(C(=O)N(C)c4c(Br)cc(C)cc43)[C@@H]2C)cc1` has what recorded composite z-score?
[A] 0.533

[Q] Please give the result for `CC(C)NC(=O)[C@@H]1c2ccccc2C(=O)N(Cc2ccccc2C(F)(F)F)[C@H]1c1ccc(CO)cc1` too.
[A] -0.403

[Q] Please give the result for `COCCCNC(=O)[C@@]1(CCS(=O)(=O)c2ccccc2)COC(c2ccc(OCCCO)cc2)=N1` too.
[A] 3.75
